Target: recombinant human sEH (Homo sapiens, UniProt P34913)
Sequence (P34913 whole entry): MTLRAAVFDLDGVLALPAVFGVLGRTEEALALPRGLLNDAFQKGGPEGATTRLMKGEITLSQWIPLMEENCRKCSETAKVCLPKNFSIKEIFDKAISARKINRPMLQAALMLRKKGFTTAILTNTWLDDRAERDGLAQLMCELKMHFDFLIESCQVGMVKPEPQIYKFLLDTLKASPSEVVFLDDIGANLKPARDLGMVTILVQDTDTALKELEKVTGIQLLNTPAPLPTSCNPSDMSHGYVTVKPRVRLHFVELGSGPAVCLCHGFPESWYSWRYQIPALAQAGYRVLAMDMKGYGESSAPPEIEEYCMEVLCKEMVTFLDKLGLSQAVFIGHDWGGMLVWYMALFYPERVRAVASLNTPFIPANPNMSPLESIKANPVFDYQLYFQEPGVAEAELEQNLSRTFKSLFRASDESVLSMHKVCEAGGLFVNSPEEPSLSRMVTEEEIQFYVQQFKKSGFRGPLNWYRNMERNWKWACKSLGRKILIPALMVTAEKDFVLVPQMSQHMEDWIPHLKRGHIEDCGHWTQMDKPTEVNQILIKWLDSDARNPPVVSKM
Assay: biochemical
Conditions: PHOME substrate, 37 °C, 60 min, mean ± SD (n = 3); read-out: IC50 (sEH inhibitory effect)
pIC50: −log10 of the molar value.
Kindly state pIC50 for each of the entries shown.

The examples below pair each entry with its known result.
- Compound: "C=C(C)C1CCC2=CC(CC(C)(O)C(O)C3=CC(C(=O)OC)=C(C1)O3)OC2=O (stereo not drawn)"
  Value Measured: "< 4.00"
- Compound: "C=C(C)C1CCC23OC2C(CC(C)(O)C=C2C=C(C(=O)OC)C(OC)(C1)O2)OC3=O (stereo not drawn)"
  Value Measured: 4.15
- Compound: "C=C(C)C1CC=C(C(=O)OC)CC(=O)CC(C)(O)C=C2C=C(C(=O)OC)C(OC)(C1)O2 (stereo not drawn)"
  Value Measured: 4.10
- Compound: "C=C(C)[C@H]1C/C=C(\\C(=O)OC)CC(=O)C[C@@](C)(O)[C@@H](O)C2=CC(C(=O)OC)=C(C1)O2"
  Value Measured: "< 4.00"
- Compound: "C=C(C)[C@H]1CCC2=C[C@@H](C[C@@]3(C)CC(=O)[C@H](CC(=O)C1)O3)OC2=O [Compound 10, 5-epinorcembrene]"
  Value Measured: "< 4.00"

Alright, here's another compound for you.
[in] So what pIC50 did C=C1CC=C2C(C=C(C)CCC3OC3(C)CCC1O)OCC2(C)O (stereo not drawn) get with recombinant human sEH (Homo sapiens, UniProt P34913)?
[out] < 4.00

====

Kindly state Ki for each of the entries shown.
Target: recombinant human sEH (Homo sapiens, UniProt P34913)
Assay: Enzyme kinetics of sEH inhibition (Lineweaver-Burk and Dixon plots)
Conditions: Determined using Dixon plots; read-out: Ki (inhibition constant)

- Compound: "C=C(C)C1CCC23OC2C(CC(C)(O)C=C2C=C(C(=O)OC)C(OC)(C1)O2)OC3=O (centres unmarked)"
  Readout Name: "Ki"
  Value Measured: "59.4 µM"

Alright, here's another compound for you.
[in] Give the measured Ki of C=C(C)C1CC=C(C(=O)OC)CC(=O)CC(C)(O)C=C2C=C(C(=O)OC)C(OC)(C1)O2 (centres unmarked) .
[out] 55 µM

The origin of these recorded values is paper PMC11355918.
